Overview of reported IC50 across a group of compounds:
- test_details: Glycomer activity determined as growth inhibition of human glioblastoma LN18 cells
- Type: functional, cell-based
- assay_context: Homo sapiens, LN-18
Kindly answer with a numeric value in µM, unit omitted.

Examples with answers:
compound=C=CCO[C@H]1[C@H](O)[C@H](COS(=O)(=O)c2cccc(C(F)(F)F)c2)O[C@H](Oc2ccc(I)cc2)[C@@H]1OC(=O)CCC observed_value=25
compound=CCCC(=O)O[C@@H]1[C@H](Oc2ccc(I)cc2)O[C@@H](COS(=O)(=O)c2cccc(C(F)(F)F)c2)[C@@H](O)[C@@H]1OC observed_value=26
compound="C=CCO[C@H]1[C@H](O)[C@H](COS(=O)(=O)c2cccc(C(F)(F)F)c2)O[C@@H](Oc2ccc(I)cc2)[C@H]1OC(=O)CCC (stereo in doubt; 16a)" observed_value=40
compound=C=CCO[C@@H]1[C@H](O)[C@H](Oc2ccc(I)cc2)O[C@@H](COS(=O)(=O)c2cccc(C(F)(F)F)c2)[C@H]1O observed_value=21
compound=C=CCO[C@H]1[C@H](O)[C@H](COS(=O)(=O)c2cccc(C(F)(F)F)c2)O[C@@H](Oc2ccc(I)cc2)[C@H]1OC(=O)CC observed_value=7
compound=C=CCO[C@H]1[C@@H](O)[C@H](COS(=O)(=O)c2cccc(C(F)(F)F)c2)O[C@@H](Oc2ccc(I)cc2)[C@H]1OC(=O)C(C)C observed_value=18.5

Please examine the following record next.
query: What IC50 value was documented for this compound, C=CCOC1C(O)C(CNS(=O)(=O)c2cccc(C(F)(F)F)c2)OC(Oc2ccc(I)cc2)C1O (centres undefined) ?
result: 16

Origin of measurements: ChEMBL document CHEMBL1145048
